In this section, each of the compounds is paired with its reported inhibition at 100 µM.
Test system: Strept. pneumoniae
Test: Inhibition test (microdilution assay), inhibition of bacterial growth
Type: cell-based
Settings: Streptococcus pneumoniae; c = 100 μM

Take a look at these entries with their results.
CC(C)CCn1cncc1-c1c[nH]c2cnc(OCc3ccccc3)cc12 [Example 5] :: 90%
Cc1[nH]c2ccccc2c1-c1cncn1CCNC(C)C [Example 8] :: 0%
c1ccc(COc2cc3c(-c4cncn4C4CCCc5ccccc54)c[nH]c3cn2)cc1 (stereo not drawn) [Example 1] :: 100%
c1ccc(CN2CCC(n3cncc3-c3c[nH]c4ccccc34)CC2)cc1 [Example 3] :: 80%
c1ccc(COc2cc3c(-c4cncn4C4CCN(Cc5ccccc5)CC4)c[nH]c3cn2)cc1 [Example 4] :: 90%

Request: Would you kindly share the measured inhibition at 100 µM for COc1ccc2[nH]cc(-c3cncn3CCc3ccc(O)cc3)c2c1 [Example 9] ?
Response: 85%

Request: Would you kindly share the measured inhibition at 100 µM for c1ccc(COc2cc3c(-c4cncn4CCc4c[nH]c5ccccc45)c[nH]c3cn2)cc1 [Example 6] ?
Response: 10%

Request: Would you kindly share the measured inhibition at 100 µM for Cc1[nH]c2ccccc2c1-c1cncn1C1CCCc2ccccc21 (stereo not drawn) [Example 7] ?
Response: 0%

Request: Would you kindly share the measured inhibition at 100 µM for Cc1[nH]c2ccccc2c1-c1cncn1C1CCN(Cc2ccccc2)CC1 [Example 2] ?
Response: 90%
